# Tested on: NCI-H1975 cells
# method.notes: Inhibition of NCI-H1975 cell proliferation (CellTiter-Glo)
# Format: cell-based
# protocol.conditions: NCI-H1975 cell proliferation, 72 hours, CellTiter-Glo; read-out: EGFR IC50 (nM) H1975
reported.endpoint: IC50
Respond with a number, then the unit of measure.

Query string: Reported IC50 for NCI-H1975 cells, given C=CC(=O)Nc1cc(Nc2nccc(-n3nc(C4CC4)c4ccccc43)n2)c(OC)cc1N(C)CCN(C)C [Example 111] ?
Result string: 5.65 nM

---

Below is a list of entries, each paired with its recorded Cmax value.
# method.notes: in vivo
# protocol.conditions: beagle, dog, po, 2 mg/kg
Unit ng/mL implied. Number only.

{"molecule": "C=CC(=O)Nc1cc(Nc2nccc(-c3cn(C)c4ccccc34)n2)c(OC)cc1N(C)CCN(C)C [AZD-9291, reference compound]", "Cmax, ng/mL": 81.4}
{"molecule": "C=CC(=O)Nc1cc(Nc2nccc(-c3cn(C4CC4)c4ccccc34)n2)c(OC)cc1N(C)CCNC [Metabolite of Example 26]", "Cmax, ng/mL": 126}

Query string: Any idea what Cmax was measured for C=CC(=O)Nc1cc(Nc2nccc(-c3cn(C4CC4)c4ccccc34)n2)c(OC)cc1N(C)CCN(C)C ?
Result string: 528
